Hey, just so you know, these numbers are from paper PMC4627284.

- testMethodNotes: Pharmacokinetic analysis after a single dose by oral gavage
- Assay type: in vivo, NOD/SCID mice
- measurementConditions: female, NOD/SCID, mouse, plasma; 0.4 mg/kg oral gavage, mice; read-out: Vz/F
experimentalEndpoint: Vd/F (L)

INSERT INTO results (cpdsmiles, experimentalendpoint, unitsymbol, reading) VALUES
  ('COC(=O)C[C@](O)(CCCC(C)(C)O)C(=O)O[C@@H]1C(OC)=C[C@]23CCCN2CCc2cc4c(cc2[C@H]13)OCO4', 'Vd/F', 'L', 0.0877);

----------
- testMethodNotes: Pharmacokinetic analysis after a single dose by oral gavage
- Type: in vivo, NOD/SCID mice
- measurementConditions: female, NOD/SCID, mouse, plasma; 0.4 mg/kg oral gavage, mice
experimentalEndpoint: Cmax

INSERT INTO assay_data (cpdsmiles, reading) VALUES
  ('COC(=O)C[C@](O)(CCCC(C)(C)O)C(=O)O[C@@H]1C(OC)=C[C@]23CCCN2CCc2cc4c(cc2[C@H]13)OCO4', '28.8 ng/mL');

----------
- testMethodNotes: Pharmacokinetic analysis after a single dose by oral gavage
- Type: in vivo, NOD/SCID mice
- measurementConditions: female, NOD/SCID, mouse, plasma; 2 mg/kg oral gavage, mice
experimentalEndpoint: Tmax (h)

INSERT INTO assay_data (cpdsmiles, experimentalendpoint, reading) VALUES
  ('COC(=O)C[C@](O)(CCCC(C)(C)O)C(=O)O[C@@H]1C(OC)=C[C@]23CCCN2CCc2cc4c(cc2[C@H]13)OCO4', 'Tmax', 1.5);

----------
- testMethodNotes: Pharmacokinetic analysis after a single dose by oral gavage
- Format: in vivo, NOD/SCID mice
- measurementConditions: female, NOD/SCID, mouse, plasma; 0.4 mg/kg oral gavage, mice
experimentalEndpoint: AUC(0-inf)

INSERT INTO results (cpdsmiles, experimentalendpoint, reading) VALUES
  ('COC(=O)C[C@](O)(CCCC(C)(C)O)C(=O)O[C@@H]1C(OC)=C[C@]23CCCN2CCc2cc4c(cc2[C@H]13)OCO4', 'AUC(0-inf)', '251 ng·h/mL');
